In this section we review reported self-splicing fitness (ln) values for a set of sequences.
experiment: self-splicing fitness, log relative to wild type (ln ratio); higher = more splicing; Tetrahymena group I intron in knt gene, E. coli kanamycin selection, DiMSum; sequences stand for … in CUCUCU…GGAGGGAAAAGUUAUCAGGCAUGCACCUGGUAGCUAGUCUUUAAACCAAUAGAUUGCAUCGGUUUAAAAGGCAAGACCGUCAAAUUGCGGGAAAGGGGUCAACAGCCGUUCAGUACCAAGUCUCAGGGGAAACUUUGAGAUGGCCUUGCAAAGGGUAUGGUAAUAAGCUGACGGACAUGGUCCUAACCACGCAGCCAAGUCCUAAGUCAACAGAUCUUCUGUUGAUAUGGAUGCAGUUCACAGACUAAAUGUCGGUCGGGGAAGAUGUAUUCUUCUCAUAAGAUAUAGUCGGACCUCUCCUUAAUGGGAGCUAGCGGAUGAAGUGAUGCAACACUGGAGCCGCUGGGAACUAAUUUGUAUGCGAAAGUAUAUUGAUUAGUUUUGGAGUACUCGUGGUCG; conditions: 30 °C;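 also: selection with 25 µg/mL kanamycin versus none on LB agar overnight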
Observation type: self-splicing fitness (ln)

- UCUAAGCAAUAUUACGAAAG: -2.88
- UACCAGCAAUAUUACGCACU: -0.478
- GAUUAGCAAUAUUACGAGAC: -1.51
- CCACAGCAAUAUUACGACUA: -3.08
- CCACAGCAAUAUUACGGUGU: -2.98
- AACUAGCAAUAUUACGAUAC: -3.15
- AUCGAGCAAUAUUACGGGAU: -2.82
- AGUCAGCAAUAUUACGCGAG: -1.57
- AGUGAGCAAUAUUACGACUG: -0.0618
- CGGAAGCAAUAUUACGAUCC: -3.21
- AUGGAGCAAUAUUACGUGGU: -3.08
- CAGAAGCAAUAUUACGUGUA: -3.81
- AACAAGCAAUAUUACGACUC: -0.216
- ACUCAGCAAUAUUACGGUGG: -4.04
- CCAAAGCAAUAUUACGCAGU: -3.71
- CGGGAGCAAUAUUACGGGGA: -2.04
- AGACAGCAAUAUUACGGUCU: -3.78
- CACGAGCAAUAUUACGAAUA: -2.08
- CUUCAGCAAUAUUACGUUAA: -2.84
- CCGUAGCAAUAUUACGGAUC: -3.86
- CCUAAGCAAUAUUACGGUAA: -2.48
- GUCCAGCAAUAUUACGAUGA: -1.49
- AUCGAGCAAUAUUACGGUUU: -2.08
- CGUGAGCAAUAUUACGAGAU: -3.4
- CAGUAGCAAUAUUACGCGUU: -2.21
- GGCCAGCAAUAUUACGGUAA: -0.188
- UUUAAGCAAUAUUACGAACA: -0.6
- UUCAAGCAAUAUUACGGCCG: -0.747

---

In this section we review reported self-splicing fitness (ln) values for a set of sequences.
assay: self-splicing fitness, log relative to wild type (ln ratio); higher = more splicing; Tetrahymena group I intron in knt gene, E. coli kanamycin selection, DiMSum; sequences stand for … in CUCUCU…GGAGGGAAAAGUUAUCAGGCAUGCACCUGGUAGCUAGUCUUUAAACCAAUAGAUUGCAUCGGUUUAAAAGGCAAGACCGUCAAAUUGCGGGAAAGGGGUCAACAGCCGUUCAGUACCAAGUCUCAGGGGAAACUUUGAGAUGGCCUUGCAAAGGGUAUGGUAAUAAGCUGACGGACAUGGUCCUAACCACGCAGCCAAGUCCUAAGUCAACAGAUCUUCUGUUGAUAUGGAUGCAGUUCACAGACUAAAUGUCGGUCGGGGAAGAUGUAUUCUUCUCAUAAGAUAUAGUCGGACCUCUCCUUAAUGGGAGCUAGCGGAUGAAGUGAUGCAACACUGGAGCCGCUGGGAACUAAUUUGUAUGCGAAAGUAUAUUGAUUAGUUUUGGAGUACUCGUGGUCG; details: 30 °C
Observation type: self-splicing fitness (ln)

* GCACAGCAAUAUUACGCGAA | -0.472
* CGCGAGCAAUAUUACGCAUG | -2.48
* AUCGAGCAAUAUUACGAACU | -1.06
